# experimental.target: HLA-B*48:01
# procedure.text: IEDB peptide-MHC binding, purified MHC/direct/fluorescence; filed as Kd, often an IC50 or EC50 that approximates it; bounds were set here for any values at or beyond the usual limits of such assays
# assay.setup: source organism: Influenza A virus (A/whooper swan/Mongolia/6/05(H5N1))
readout.label: Kd

API: value(readout=Kd, system=HLA-B*48:01) for record SSDDFALIV
≥ 20 µM

----------
# experimental.target: HLA-B*08:01
# procedure.text: IEDB peptide-MHC binding, purified MHC/competitive/radioactivity; filed as Kd, often an IC50 or EC50 that approximates it; bounds were set here for any values at or beyond the usual limits of such assays
# assay.setup: source organism: Dengue virus 1 Brazil/97-11/1997
readout.label: Kd
Include the unit after the number when you answer.

Which Kd value is on record for SLLKNDVPL ?
124 nM

----------
# experimental.target: HLA-A*01:01
# procedure.text: IEDB peptide-MHC binding, purified MHC/direct/fluorescence; filed as Kd, often an IC50 or EC50 that approximates it; bounds were set here for any values at or beyond the usual limits of such assays
# assay.setup: source organism: Pseudomonas aeruginosa
pKd: −log10 of the molar value.
readout.label: pKd

Which pKd value is on record for DLPPAIAAE ?
≤ 4.70

----------
# experimental.target: HLA-B*07:02
# procedure.text: IEDB peptide-MHC binding, purified MHC/direct/fluorescence; filed as Kd, often an IC50 or EC50 that approximates it; bounds were set here for any values at or beyond the usual limits of such assays
# assay.setup: source organism: Camelpox virus M-96
pKd: −log10 of the molar value.
readout.label: pKd

Which pKd value is on record for FENDIDEIL ?
≤ 4.70

----------
# experimental.target: HLA-A*69:01
# procedure.text: IEDB peptide-MHC binding, purified MHC/competitive/fluorescence; filed as Kd, often an IC50 or EC50 that approximates it; bounds were set here for any values at or beyond the usual limits of such assays
# assay.setup: source organism: Campylobacter jejuni subsp. jejuni NCTC 11168 = ATCC 700819
readout.label: Kd

API: value(readout=Kd, system=HLA-A*69:01) for record LELAEITAE
≥ 20 µM

----------
# experimental.target: HLA-B*52:01
# procedure.text: IEDB peptide-MHC binding, purified MHC/competitive/radioactivity; filed as Kd, often an IC50 or EC50 that approximates it; bounds were set here for any values at or beyond the usual limits of such assays
# assay.setup: source organism: Homo sapiens
pKd: −log10 of the molar value.
readout.label: pKd

Which pKd value is on record for QQITQTEV ?
≤ 4.52

----------
This listing pairs sequences with measured Kd.
# experimental.target: HLA-A*31:01
# procedure.text: IEDB peptide-MHC binding, purified MHC/competitive/radioactivity; filed as Kd, often an IC50 or EC50 that approximates it; bounds were set here for any values at or beyond the usual limits of such assays
# assay.setup: source organism: Dengue virus 2 Jamaica/1409/1983
Include the unit after the number when you answer.

Worked set:
item_sequence=KLITEWCCR result="10.3 nM"
item_sequence=RVIDPRRCMK result="4.4 nM"
item_sequence=RSCTLPPLR result="4.6 nM"

Query sequence follows.
Which Kd value is on record for IMKNTTNTRR ?
13.9 nM

----------
# experimental.target: HLA-B*07:02
# procedure.text: IEDB peptide-MHC binding, purified MHC/direct/fluorescence; filed as Kd, often an IC50 or EC50 that approximates it; bounds were set here for any values at or beyond the usual limits of such assays
# assay.setup: source organism: Giardia intestinalis
readout.label: pKd
For clarity, pKd is expressed as the negative log10 of concentration in mol/L.

Which pKd value is on record for DYAMHGTVF ?
5.06

----------
This listing pairs sequences with measured pIC50.
# experimental.target: HLA-A*24:02
# procedure.text: IEDB peptide-MHC binding, purified MHC/competitive/fluorescence; bounds were set here for any values at or beyond the usual limits of such assays
# assay.setup: source organism: Variola virus
For clarity, pIC50 is expressed as the negative log10 of concentration in mol/L.

item_sequence=RKHHTKIDS experimental_target=HLA-A*24:02 readout_label=pIC50 result=4.56

Query sequence follows.
Which pIC50 value is on record for LDKITDFHE ?
4.62

----------
# experimental.target: HLA-B*58:01
# procedure.text: IEDB peptide-MHC binding, purified MHC/competitive/fluorescence; filed as Kd, often an IC50 or EC50 that approximates it; bounds were set here for any values at or beyond the usual limits of such assays
# assay.setup: source organism: Influenza A virus (A/parakeet/Narita/92A/98(H9N2))
readout.label: pKd
For clarity, pKd is expressed as the negative log10 of concentration in mol/L.

Which pKd value is on record for GVLIGGLEW ?
6.26

----------
# experimental.target: HLA-B*08:01
# procedure.text: IEDB peptide-MHC binding, purified MHC/competitive/radioactivity; filed as Kd, often an IC50 or EC50 that approximates it; bounds were set here for any values at or beyond the usual limits of such assays
# assay.setup: source organism: Vaccinia virus WR
Lab note: compare Kd with 10 nM, writing Satisfied if less and Not satisfied if equal or more.

Illustrative cases are given below, each with its answer.
item_sequence=GERYYFAYI class=Satisfied
item_sequence=KTIYAVDSF class="Not satisfied"
item_sequence=SAEMRLLSI class="Not satisfied"

Determine if FVMFGFCYL shows Kd strictly lower than 10 nM.
Not satisfied

Determine if NMFNISFRF shows Kd strictly lower than 10 nM.
Not satisfied

Determine if FFKQTFGSL shows Kd strictly lower than 10 nM.
Satisfied

Determine if ANITHFCSF shows Kd strictly lower than 10 nM.
Not satisfied

Determine if ILHHHRNVF shows Kd strictly lower than 10 nM.
Not satisfied

Determine if NLRCHSAHV shows Kd strictly lower than 10 nM.
Satisfied

Determine if SMHFYGWSL shows Kd strictly lower than 10 nM.
Satisfied

Determine if RSLIIVLLF shows Kd strictly lower than 10 nM.
Not satisfied

----------
# experimental.target: HLA-A*03:01
# procedure.text: IEDB peptide-MHC binding, purified MHC/direct/fluorescence; filed as Kd, often an IC50 or EC50 that approximates it; bounds were set here for any values at or beyond the usual limits of such assays
# assay.setup: source organism: Orthohantavirus hantanense
readout.label: Kd (nM)
Field: numeric (nM). Do not append units.

Which Kd value is on record for RLKPVGSAY ?
214

----------
# experimental.target: HLA-B*53:01
# procedure.text: IEDB peptide-MHC binding, purified MHC/competitive/fluorescence; bounds were set here for any values at or beyond the usual limits of such assays
# assay.setup: source organism: human gammaherpesvirus 4
readout.label: IC50 (µM)
Field: numeric (µM). Do not append units.

Which IC50 value is on record for LASAMRMLW ?
0.0783

----------
# experimental.target: HLA-B*15:01
# procedure.text: IEDB peptide-MHC binding, purified MHC/direct/fluorescence; filed as Kd, often an IC50 or EC50 that approximates it; bounds were set here for any values at or beyond the usual limits of such assays
# assay.setup: source organism: Influenza A virus (A/swine/Cotes d'Armor/800/00(H1N2))
readout.label: Kd

Which Kd value is on record for GMDPRMCSL ?
≥ 20 µM

----------
# experimental.target: HLA-A*02:19
# procedure.text: IEDB peptide-MHC binding, purified MHC/direct/fluorescence; filed as Kd, often an IC50 or EC50 that approximates it; bounds were set here for any values at or beyond the usual limits of such assays
# assay.setup: source organism: Clostridium botulinum NCTC 2916
readout.label: pKd
For clarity, pKd is expressed as the negative log10 of concentration in mol/L.

Which pKd value is on record for RVYINVVVK ?
5.67

----------
# experimental.target: HLA-A*02:03
# procedure.text: IEDB peptide-MHC binding, purified MHC/competitive/radioactivity; filed as Kd, often an IC50 or EC50 that approximates it; bounds were set here for any values at or beyond the usual limits of such assays
# assay.setup: source organism: Dengue virus 2 Peru/IQT2913/1996
This listing pairs sequences with measured Kd.
Field: numeric (nM). Do not append units.

item_sequence=LLVISGLFPV result=4.84

Which Kd value is on record for GLFPVSIPI ?
4.32

----------
# experimental.target: HLA-B*18:01
# procedure.text: IEDB peptide-MHC binding, purified MHC/direct/fluorescence; filed as Kd, often an IC50 or EC50 that approximates it; bounds were set here for any values at or beyond the usual limits of such assays
# assay.setup: source organism: Shigella sonnei Ss046
pKd: −log10 of the molar value.
readout.label: pKd

API: value(readout=pKd, system=HLA-B*18:01) for record VLDMGDPVK
≤ 4.70

----------
# experimental.target: HLA-A*69:01
# procedure.text: IEDB peptide-MHC binding, purified MHC/direct/fluorescence; filed as Kd, often an IC50 or EC50 that approximates it; bounds were set here for any values at or beyond the usual limits of such assays
# assay.setup: source organism: Lyssavirus rabies
pKd: −log10 of the molar value.
readout.label: pKd

Which pKd value is on record for YLDNVGVHI ?
≤ 4.70
